Biological target: T1, amino acid residues 26-148 of human ANGPTL4 fused in-line to mouse IgG2a (hANGPTL4-mFc) (human)
T1 construct: contains the N-terminal coiled-coil region
T1 chain: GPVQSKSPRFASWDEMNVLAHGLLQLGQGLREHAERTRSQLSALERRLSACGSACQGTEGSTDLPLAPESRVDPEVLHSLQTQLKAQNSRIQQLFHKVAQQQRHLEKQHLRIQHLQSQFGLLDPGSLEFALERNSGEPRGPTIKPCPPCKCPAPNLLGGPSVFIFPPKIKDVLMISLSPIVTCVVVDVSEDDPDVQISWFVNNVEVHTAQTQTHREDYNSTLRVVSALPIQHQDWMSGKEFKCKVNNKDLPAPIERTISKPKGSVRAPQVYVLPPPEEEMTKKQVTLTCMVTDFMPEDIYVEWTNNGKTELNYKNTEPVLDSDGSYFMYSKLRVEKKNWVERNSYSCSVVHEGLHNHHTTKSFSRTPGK
Test: SPR (Biacore), 25° C., pH 5.75, antigen captured by anti-mFc
property measured: koff (s⁻¹)
A number alone suffices; assume s⁻¹.

>>> data_value("H1H268P Fab fragment (Fab, V domains shown, Fab made by papain digestion of H1H268P (IgG1); also called H1H268 Fab) VH: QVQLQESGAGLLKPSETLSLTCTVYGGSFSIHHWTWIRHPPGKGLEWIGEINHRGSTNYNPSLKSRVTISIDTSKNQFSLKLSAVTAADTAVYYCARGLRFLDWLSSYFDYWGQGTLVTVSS VL: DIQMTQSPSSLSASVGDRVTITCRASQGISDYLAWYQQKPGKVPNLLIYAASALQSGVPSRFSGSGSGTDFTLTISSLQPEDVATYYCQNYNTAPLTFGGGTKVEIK")
0.00304

Lookup: For H1H284P Fab fragment (Fab, V domains shown, Fab made by papain digestion of H1H284P (IgG1); also called H1H284 Fab) VH: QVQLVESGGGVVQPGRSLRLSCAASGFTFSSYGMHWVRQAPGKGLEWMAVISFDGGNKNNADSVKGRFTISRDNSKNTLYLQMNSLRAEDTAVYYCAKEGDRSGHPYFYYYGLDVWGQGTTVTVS VL: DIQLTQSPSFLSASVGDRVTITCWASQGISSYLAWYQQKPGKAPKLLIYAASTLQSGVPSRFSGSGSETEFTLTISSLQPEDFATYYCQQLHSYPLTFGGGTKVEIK , what is its reported koff?
Found: 0.0016

Lookup: # lookup: koff of H1H284P (antibody, V domains shown, also called entire H1H284 mAb; Full mAb) VH: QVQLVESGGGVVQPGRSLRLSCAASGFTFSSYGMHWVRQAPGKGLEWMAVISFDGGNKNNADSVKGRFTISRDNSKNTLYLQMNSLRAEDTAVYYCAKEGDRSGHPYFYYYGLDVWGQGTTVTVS VL: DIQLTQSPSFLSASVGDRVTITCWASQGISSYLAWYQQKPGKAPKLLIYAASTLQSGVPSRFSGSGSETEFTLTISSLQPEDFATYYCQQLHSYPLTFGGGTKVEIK
Found: 8.91e-05

Lookup: Entry H1H268P (antibody, V domains shown, also called entire H1H268 mAb; Full mAb) VH: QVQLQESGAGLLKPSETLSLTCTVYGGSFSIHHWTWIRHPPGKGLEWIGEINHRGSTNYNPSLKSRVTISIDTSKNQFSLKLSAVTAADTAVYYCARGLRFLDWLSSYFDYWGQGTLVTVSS VL: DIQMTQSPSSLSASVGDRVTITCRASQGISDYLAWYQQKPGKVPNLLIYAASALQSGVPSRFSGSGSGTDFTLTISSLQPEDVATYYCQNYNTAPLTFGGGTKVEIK has what koff?
Found: 0.000138
